Ref: patent EP0017970A1

Entries with their measured MIC, system Enterobacter cloacae 45:
Report the value in µg/mL with no unit label.

Query block: State its MIC for this molecule: CC(C)C1C(=O)N2C(C(=O)O)=C(Sc3ccncc3)CC12 (stereo not shown) [Table I-1 R1=-CH3]
Result block: 50

Query block: Report measured MIC; entry is CCC1C(=O)N2C(C(=O)O)=C(Sc3ccccn3)CC12 (stereo not shown) [Table I-2 R1=H]
Result block: 50

Query block: // fetch MIC given entry CCC1C(=O)N2C(C(=O)O)=C(Sc3ccncc3)CC12 (stereo not shown) [Table I-1 R1=H]
Result block: 29.5

---

Method Description: Test for concentration in blood (plasma of mouse, bioassay)
Assay type: in vivo
Condition Summary: sc, subcutaneous, 2 mg/mouse, average on five mice, bioassay with Comamonas terrigena B-996, read-out: Maximum concentration
I'd be grateful if you could share measured Cmax for these entries.
Number only, in ng/mL; omit the unit.

Query block: Consider the compound CCC1C(=O)N2C(C(=O)O)=C(Sc3ccncc3)CC12 (stereo not drawn) [Table II r5 R1=H R2=[drawing] M=H] and give its recorded Cmax.
Result block: 70700

Query block: Identify measured Cmax associated with CCC1C(=O)N2C(C(=O)O)=C(SCCNC(=O)Cc3ccccc3)CC12 (stereo not drawn) [R1=H R2=-CH2CH2NHCOCH2-[drawing] M=Na]
Result block: 2800

Query block: Using known records, supply Cmax for CCC1C(=O)N2C(C(=O)O)=C(SCCN(C)C)CC12 (stereo not drawn)
Result block: 36200

Query block: For CC(C)C1C(=O)N2C(C(=O)O)=C(SCCN(C)C)CC12 (stereo not drawn) , write its Cmax.
Result block: 22000

Query block: Supply recorded Cmax for CCC1C(=O)N2C(C(=O)O)=C(SC3CCCCC3)CC12 (stereo not drawn) [Table II r14 R1=H R2=[drawing] M=Na] here.
Result block: 8240

Query block: Tell me measured Cmax for CC(=O)NCCSC1=C(C(=O)O)N2C(=O)C(C(C)C)C2C1 (stereo not drawn) [PS-6.Na, reference compound] please.
Result block: 23800

Query block: Give a short answer stating reported Cmax for CCC1C(=O)N2C(C(=O)O)=C(Sc3ccccn3)CC12 (stereo not drawn) [Table II r9 R1=H R2=[drawing] M=H] .
Result block: 48400

Query block: Output Cmax of CCC1C(=O)N2C(C(=O)O)=C(Sc3ccccc3)CC12 (stereo not drawn) [Table II r15 R1=H R2=[drawing] M=Na]
Result block: 11300

Query block: In one line, give reported Cmax of the entry CC(=O)NCCSC1=C(C(=O)O)N2C(=O)C(C(C)O)C2C1 (stereo not drawn) [PS-3B.Na, reference compound] .
Result block: 26300

Query block: In one line, give reported Cmax of the entry CCC1C(=O)N2C(C(=O)O)=C(SCCO)CC12 (stereo not drawn) .
Result block: 36900

Query block: Specify measured Cmax for CC(O)[C@H]1C(=O)N2C(C(=O)O)=C(Sc3ccncc3)C[C@H]12 (relative stereo) [Table II r7 R1=-OH R2=[drawing] M=H*] .
Result block: 103000

Query block: Using known records, supply Cmax for CC(C)C1C(=O)N2C(C(=O)O)=C(Sc3ccncc3)CC12 (stereo not drawn) [Table II r6 R1=-CH3 R2=[drawing] M=H]
Result block: 30700

Query block: Answer with reported Cmax of CCC1C(=O)N2C(C(=O)O)=C(Sc3ncccn3)CC12 (stereo not drawn) [Table II r10 R1=H R2=[drawing] M=H]
Result block: 23600

Query block: Tell me its Cmax given CCC1C(=O)N2C(C(=O)O)=C(SCCNC(C)=O)CC12 (stereo not drawn) [PS-5.Na, reference compound] as the entry.
Result block: 40000

Query block: State its Cmax: CC(O)[C@@H]1C(=O)N2C(C(=O)O)=C(Sc3ccncc3)C[C@H]12 (relative stereo) [Table II r8 R1=-OH R2=[drawing] M=H**]
Result block: 29000

Query block: Given the compound CC(C)C1C(=O)N2C(C(=O)O)=C(Sc3ncccn3)CC12 (stereo not drawn) [Table II r11 R1=-CH3 R2=[drawing] M=H] , write its reported Cmax.
Result block: 21200

Query block: Please give the documented Cmax of CC(O)[C@@H]1C(=O)N2C(C(=O)O)=C(Sc3ncccn3)C[C@H]12 (relative stereo) [Table II r13 R1=-OH R2=[drawing] M=H**]
Result block: 23300

Query block: Give the value of Cmax reported for the following: CC(O)[C@H]1C(=O)N2C(C(=O)O)=C(Sc3ncccn3)C[C@H]12 (relative stereo) [Table II r12 R1=-OH R2=[drawing] M=H*]
Result block: 54000
